List of IC50 tested on Trypanothione reductase (Trypanosoma cruzi).
Sequence (P28593 whole entry): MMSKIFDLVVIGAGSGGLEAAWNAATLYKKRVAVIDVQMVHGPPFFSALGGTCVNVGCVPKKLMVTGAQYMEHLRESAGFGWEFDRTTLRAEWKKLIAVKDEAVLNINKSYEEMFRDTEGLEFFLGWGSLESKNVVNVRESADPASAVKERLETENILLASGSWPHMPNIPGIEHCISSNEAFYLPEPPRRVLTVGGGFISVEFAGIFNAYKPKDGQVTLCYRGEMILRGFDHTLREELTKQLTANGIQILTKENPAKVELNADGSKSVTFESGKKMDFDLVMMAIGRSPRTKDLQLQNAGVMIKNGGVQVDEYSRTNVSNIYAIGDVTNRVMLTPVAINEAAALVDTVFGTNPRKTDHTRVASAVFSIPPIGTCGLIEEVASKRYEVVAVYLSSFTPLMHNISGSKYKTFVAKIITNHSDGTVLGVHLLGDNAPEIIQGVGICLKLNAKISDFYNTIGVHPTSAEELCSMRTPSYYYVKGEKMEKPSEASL

Structure	Measured value
O=C(Cc1ccc2ccccc2c1)NNC(=O)c1ccc([N+](=O)[O-])o1	> 25 µM

// below: IC50 requested for another compound
Hello, I am looking for reported IC50 with Trypanothione reductase (Trypanosoma cruzi) for NNC(=O)c1ccc([N+](=O)[O-])o1 . Could you help? > 50 µM
